assay: LogP by HPLC on reversed phase columns (EEC directive 79/831 Annex V.A8); settings: Table 2, formula (V); LC-UV, acidic range, 0.1% formic acid in water and acetonitrile
Recorded Metric: LogP [a]

>  <Compound>
COc1ccc(Oc2ccc(C(C)=O)c(Cl)n2)c(Cl)c1 [V.29]

>  <Recorded Metric>
LogP [a]

>  <Assay Value>
3.44^[a]

$$$$
>  <Compound>
CC(=O)c1cnc(Oc2ccc(C(F)(F)F)cc2)cc1Cl [V.18]

>  <Recorded Metric>
LogP [a]

>  <Assay Value>
3.87^[a]

$$$$
>  <Compound>
CC(=O)c1ccc(Oc2ccccc2)nc1Cl [V.21]

>  <Recorded Metric>
LogP [a]

>  <Assay Value>
2.94

$$$$
>  <Compound>
CC(=O)c1ccc(Oc2ccc(OC(F)(F)F)cc2)nc1Cl [V.28]

>  <Recorded Metric>
LogP [a]

>  <Assay Value>
3.89^[a]

$$$$
>  <Compound>
CC(=O)c1cnc(Oc2ccc(Cl)cc2)cc1Cl [V.22]

>  <Recorded Metric>
LogP [a]

>  <Assay Value>
3.51^[a]

$$$$
>  <Compound>
CC(=O)c1ccc(Oc2ccc(Cl)c(Cl)c2)nc1Cl [V.11]

>  <Recorded Metric>
LogP [a]

>  <Assay Value>
4.10^[a]

$$$$

###

Some compounds, each annotated with its measured LogP [a].
Assay: LogP by HPLC on reversed phase columns (EEC directive 79/831 Annex V.A8)
Settings: Table 1, formula (I); LC-UV, acidic range, 0.1% formic acid in water and acetonitrile
Description: Measurement of LogP values was performed according to EEC directive 79/831 Annex V.A8 by HPLC (High Performance Liquid Chromatography) on reversed phase columns with the following methods: Lambda-max-values were determined using UV-spectra from 200 nm to 400 nm and the peak values of the chromatographic signals.
Recorded Metric: LogP [a]

>  <Compound>
OC(Cn1cncn1)c1cnc(Oc2ccc(S(F)(F)(F)(F)F)cc2)cc1C(F)(F)F (single isomer, unassigned) [I.83]

>  <Recorded Metric>
LogP [a]

>  <Assay Value>
3.11^[a]

$$$$
>  <Compound>
CC(O)(Cn1cncn1)c1ccc(Oc2ccc(C(F)(F)F)cc2)nc1C(F)(F)F (stereo not drawn) [I.65]

>  <Recorded Metric>
LogP [a]

>  <Assay Value>
3.04^[a]

$$$$
>  <Compound>
CC(O)(Cn1cncn1)c1ccc(Oc2ccc(Cl)cc2)nc1Cl (single isomer, unassigned) [I.52]

>  <Recorded Metric>
LogP [a]

>  <Assay Value>
2.62^[a]

$$$$

###

experiment: In vivo ecotoxicity screening test on fish (Danio rerio); conditions: Danio rerio, in vivo, other: exposure of embryos to the aqueous preparation

>  <Compound>
CC(O)(Cn1cncn1)c1ccc(Oc2ccc(Cl)cc2)nc1C(F)(F)F (stereo not shown) [I.01]

>  <LC50 at 96 h [µg/mL]>
6.21

$$$$
>  <Compound>
CC1(C)N=C(c2cnc3ccccc3c2)c2ccccc2C1(F)F [Example 15.047]

>  <LC50 at 96 h [µg/mL]>
7.82

$$$$
>  <Compound>
CC(O)(Cn1cncn1)c1ccc(Oc2ccc(Br)cc2)nc1C(F)(F)F (stereo not shown) [I.59]

>  <LC50 at 96 h [µg/mL]>
6

$$$$
>  <Compound>
CC(C)c1ccc(Cl)cc1CN(C(=O)c1c(C(F)F)nn(C)c1F)C1CC1 [Example 2.038]

>  <LC50 at 96 h [µg/mL]>
1.74

$$$$
